Tested on: morningglory
Assay: Test B pre/postemergence morningglory
Format: in vivo, Ipomoea hederacea
Conditions: Rate 250 g/ha; Postemergence
experimental.readout: Plant response rating (0 to 10; 0 is no effect, 10 is complete control), Morningglory
Write the value as a bare number.

GET /value?item= CC(C)N(C(=O)n1oc(=O)n(Cc2ccco2)c1=O)c1ccc(F)cc1 &field=Plant response rating (0 to 10; 0 is no effect, 10 is complete control), Morningglory returns 2

Value of measured Plant response rating (0 to 10; 0 is no effect, 10 is complete control), Morningglory for the entry CCCCCC#CCn1c(=O)on(C(=O)N(c2ccc(F)cc2)C(C)C)c1=O : 9

Entry Cc1ccccc1-n1c(=O)on(C(=O)N(c2ccc(Cl)cc2F)C(C)C)c1=O — recorded Plant response rating (0 to 10; 0 is no effect, 10 is complete control), Morningglory = 1

Query CCC(CC)N(C(=O)n1oc(=O)n(-c2ccccc2C)c1=O)c1ccc(F)cc1 yields Plant response rating (0 to 10; 0 is no effect, 10 is complete control), Morningglory of 1

Documented Plant response rating (0 to 10; 0 is no effect, 10 is complete control), Morningglory of C=CCn1c(=O)on(C(=O)N(c2ccc(F)cc2)C2CCC2)c1=O : 1

----------
Tested on: morningglory
Assay: Test B pre/postemergence morningglory
Assay type: in vivo, Ipomoea hederacea
Conditions: Postemergence, Rate 500 g/ha; scale of 0 to 10 where 0 is no effect and 10 is complete control
Give Morningglory plant response rating for every item shown.
// no unit string in output, number only

Record CC(C)N(C(=O)n1oc(=O)n(C(C)CCl)c1=O)c1ccc(F)cc1F (stereo not drawn) / morningglory, Morningglory plant response rating recorded as 7

// assay morningglory, entry CC(C)N(C(=O)n1oc(=O)n(C2CCCCCC2)c1=O)C1=CCCCC1 , Morningglory plant response rating value = 3

Tested on morningglory, the item COCC(OC)n1c(=O)on(C(=O)N(c2ccc(F)cc2)C(C)C)c1=O (stereo not drawn) showed Morningglory plant response rating equal to 3

Reading of Morningglory plant response rating for CC(C)Cn1c(=O)on(C(=O)N(c2ccc(Cl)cc2)C(C)C)c1=O with morningglory: 9

The recorded Morningglory plant response rating with morningglory for CC(C)N(C(=O)n1oc(=O)n(C(C)C2CC2)c1=O)c1ccc(F)cc1 (stereo not drawn) was 10

# Morningglory plant response rating measured on morningglory for item C=CC[Si](C)(C)Cn1c(=O)on(C(=O)N(c2ccc(F)cc2)C(C)C)c1=O = 9

----------
Test system: pigweed
Assay: Test B pre/postemergence pigweed
Type: in vivo, Amaranthus retroflexus
Conditions: Preemergence, Rate 500 g/ha; scale of 0 to 10 where 0 is no effect and 10 is complete control
Protocol: […] At the same time, these crop and weed species were also treated with postemergence applications of test chemicals formulated in the same manner. […] Treated plants and controls were maintained in a greenhouse for twelve to sixteen days, after which all species were compared to controls and visually evaluated. […]
Answer each item with its documented Redroot pigweed plant response rating.
Answer with a number only.

So for CC(C)N(C(=O)n1oc(=O)n(CC2CC2)c1=O)c1ccccc1 , the logged Redroot pigweed plant response rating turned out to be 8

Redroot pigweed plant response rating reading for CCOCn1c(=O)on(C(=O)N(c2ccccc2)C(C)C)c1=O : 9

Recorded Redroot pigweed plant response rating (compound CC(=O)C(C)n1c(=O)on(C(=O)N(c2ccccc2)C(C)C)c1=O (stereo not drawn) ): 10

The reported value for CC(C)N(C(=O)n1oc(=O)n(C2CCC2)c1=O)c1ccccc1 in terms of Redroot pigweed plant response rating is 10

In plain terms, C=CCCCn1c(=O)on(C(=O)N(c2ccc(F)cc2F)C(C)C)c1=O has a documented Redroot pigweed plant response rating of 10

Consider CC(C)N(C(=O)n1oc(=O)n(-c2ccc3ccccc3c2)c1=O)c1ccc(F)cc1F . Its measured Redroot pigweed plant response rating is 0

Entry CC(C)C(C)n1c(=O)on(C(=O)N(c2ccc(F)cc2F)C(C)C)c1=O (stereo not drawn) — recorded Redroot pigweed plant response rating = 10

For reference, reported Redroot pigweed plant response rating for Cc1c(-n2c(=O)on(C(=O)N(c3ccc(F)cc3F)C(C)C)c2=O)ccc2ccccc12 stands at 0

What the record says about COCn1c(=O)on(C(=O)N(c2ccc(Cl)cc2)C(C)C)c1=O : Redroot pigweed plant response rating is 8

----------
What Blackgrass plant response rating was measured for each of the following?
Tested on: blackgrass
Assay: Test B pre/postemergence blackgrass
Assay type: in vivo, Alopecurus myosuroides
Settings: Rate 500 g/ha, Postemergence; 0 to 10 scale (0 no effect, 10 complete control)
The response must contain the number and no unit.

Reported Blackgrass plant response rating of CCN(CC)C(=O)n1oc(=O)n(-c2ccc(OC)cc2)c1=O : 2

Briefly, Blackgrass plant response rating measured for COc1ccc(-n2c(=O)on(C(=O)N(C3=CCOCC3)C(C)C)c2=O)cc1 : 7

The recorded Blackgrass plant response rating for CC(C)N(C(=O)n1oc(=O)n(-c2ccc(OC(F)(F)F)cc2)c1=O)C1=CCOCC1 is 4

Given item CCc1ccccc1-n1c(=O)on(C(=O)N(c2ccc(F)cc2F)C(C)C)c1=O , the value recorded as its Blackgrass plant response rating is 4

Blackgrass plant response rating in this record for Cc1cccc(C)c1-n1c(=O)on(C(=O)N(c2ccccc2)C(C)C)c1=O : 6

// Blackgrass plant response rating value for Cc1ccccc1-n1c(=O)on(C(=O)N(c2ccc(F)cc2)C(C)C)c1=O : 6

----------
Tested on: wheat
Experiment: Test B pre/postemergence wheat
Format: in vivo, Triticum aestivum
Conditions: Preemergence, Rate 250 g/ha; scale of 0 to 10 where 0 is no effect and 10 is complete control
experimental.readout: Plant response rating, Wheat

Per the records, this compound ( CCc1ccccc1-n1c(=O)on(C(=O)N(c2ccc(F)cc2F)C(C)C)c1=O [Compound 45] ) has Plant response rating, Wheat equal to 0

Record summary for CCCn1c(=O)on(C(=O)N(c2ccc(Cl)cc2)C(C)C)c1=O [Compound 119] : reported Plant response rating, Wheat = 3

Field Plant response rating, Wheat (entry CCc1noc(CC)c1-n1c(=O)on(C(=O)N(c2ccc(F)cc2)C(C)C)c1=O [Compound 102] ) reads 0

// sample Cc1nn(C)c(C)c1-n1c(=O)on(C(=O)N(c2ccc(F)cc2)C(C)C)c1=O [Compound 75] , its Plant response rating, Wheat was 0

Recorded result, COc1ccc(-n2c(=O)on(C(=O)N(c3ccc(F)cc3)C(C)C)c2=O)c(C)c1 [Compound 35] , Plant response rating, Wheat: 0

// Plant response rating, Wheat value for Cc1ccccc1-n1c(=O)on(C(=O)N(c2ccc(Cl)cc2)C(C)C)c1=O [Compound 41] : 0

Plant response rating, Wheat reported for this compound C=CCn1c(=O)on(C(=O)N(c2ccccc2)C(C)C)c1=O [Compound 93] : 6

----------
System: corn
Assay: Test B pre/postemergence corn
Type: in vivo, Zea mays
Details: Preemergence, Rate 250 g/ha; scale 0 to 10 (0 no effect, 10 complete control)
experimental.readout: Plant response rating, Corn
Give your answer as a number; write no unit.

Per the records, this compound ( CC(C)N(C(=O)n1oc(=O)n(CCC(=O)N(C)C)c1=O)c1ccccc1 ) has Plant response rating, Corn equal to 3

Lab book: Plant response rating, Corn of CC(C)N(C(=O)n1oc(=O)n(C(C)C2CCC2)c1=O)c1ccc(Cl)cc1 (stereo not shown) noted as 0

Noted for CCOP(=O)(OCC)C(C)n1c(=O)on(C(=O)N(c2ccc(Cl)cc2)C(C)C)c1=O (stereo not shown) : its Plant response rating, Corn reads 0

Looking up CCOC(Cn1c(=O)on(C(=O)N(c2ccccc2)C(C)C)c1=O)OCC , I see its Plant response rating, Corn listed as 4

----------
System: giant foxtail
Assay: Test B pre/postemergence giant foxtail
Format: in vivo, Setaria faberii
Settings: Preemergence, Rate 500 g/ha; scale 0 to 10 (0 no effect, 10 complete control)
experimental.readout: Giant foxtail plant response rating
Lab note: write the figure by itself, no unit.

giant foxtail Giant foxtail plant response rating of CC(C)N(C(=O)n1oc(=O)n(C2CCCCC2)c1=O)c1ccc(Cl)cc1 is 10

giant foxtail data for Cc1cnn(C)c1-n1c(=O)on(C(=O)N(c2ccc(F)cc2)C(C)C)c1=O ; its Giant foxtail plant response rating: 0

GET /values?item= COc1nc(OC)nc(N(C(=O)n2oc(=O)n(C(C)C)c2=O)C(C)C)n1 &system= giant foxtail returns Giant foxtail plant response rating: 0

Noted Giant foxtail plant response rating for CC(C)N(C(=O)n1oc(=O)n(CC(F)(F)F)c1=O)c1ccc(F)cc1 , tested on giant foxtail: 10

// compound Cc1nc(C)c(Cn2c(=O)on(C(=O)N(c3ccc(Cl)cc3)C(C)C)c2=O)s1 , assay giant foxtail, Giant foxtail plant response rating value: 10

Tested on giant foxtail: CC(C)N(C(=O)n1oc(=O)n(C2CCCCC2)c1=O)c1ccc(F)cc1 . Observed Giant foxtail plant response rating: 10
